Data origin: patent US20130029970A1

For each of the compounds below, state its EC50.
target: human CB2 (hCB2) (Homo sapiens, UniProt P34972); construct: (cDNA clone) CNR0200000; assay: 35S GTPγS binding assay, hCB2 agonist; format: biochemical
Sequence (P34972 whole entry): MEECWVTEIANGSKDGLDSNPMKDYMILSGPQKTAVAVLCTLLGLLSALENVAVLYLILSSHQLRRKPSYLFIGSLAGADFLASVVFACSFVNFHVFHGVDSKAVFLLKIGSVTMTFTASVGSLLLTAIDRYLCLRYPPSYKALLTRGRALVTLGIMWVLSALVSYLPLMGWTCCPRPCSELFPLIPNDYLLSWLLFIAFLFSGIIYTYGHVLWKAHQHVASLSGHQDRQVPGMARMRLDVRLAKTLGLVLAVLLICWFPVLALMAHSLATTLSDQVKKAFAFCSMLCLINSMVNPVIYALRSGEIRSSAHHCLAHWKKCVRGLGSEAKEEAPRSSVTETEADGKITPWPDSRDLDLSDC

Challenge: Please report the recorded EC50 for COc1ccc(C(=O)c2cc3cc(C)n(CC4COCCO4)c3s2)cn1 (stereo not drawn) .
Response given: 1000 to 10000 nM

Challenge: Same question, `CCOc1ccc(C(=O)c2cc3cc(C)n(CCN4CCOCC4)c3s2)cn1` this time
Response given: 100 to 1000 nM

Challenge: Same question, `Cc1cc2cc(C(=O)c3ccc(N(C)C(=O)OC(C)(C)C)cc3)sc2n1CCN1CCOCC1` this time
Response given: 100 to 1000 nM

Challenge: Same question, `Cc1cc2cc(C(=O)c3cccnc3Cl)sc2n1CCN1CCOCC1` this time
Response given: 100 to 1000 nM

Challenge: Same question, `COc1ccc(C(=O)c2cc3c(Cl)c(C)n(CCN4CCOCC4)c3s2)cc1` this time
Response given: < 100 nM

Challenge: Same question, `Cc1cc2cc(C(=O)c3ccc(O)cc3F)sc2n1CCN1CCOCC1` this time
Response given: 100 to 1000 nM

Challenge: Same question, `COc1ccc(C(=O)c2cc3cc(C)n(CCCNS(C)(=O)=O)c3s2)c(C)c1` this time
Response given: < 100 nM

Challenge: Same question, `COc1ccc(C(=O)c2cc3cc(C)n(CC4CCOCC4)c3s2)c(F)c1` this time
Response given: < 100 nM

Challenge: Same question, `COc1ccc(C(=O)c2cc3cc(C)n(Cc4ccncc4)c3s2)cc1` this time
Response given: 100 to 1000 nM

Challenge: Same question, `COc1ccc(C(=S)c2cc3cc(C)n(CCN4CCOCC4)c3s2)cc1` this time
Response given: 100 to 1000 nM

Challenge: Same question, `COCCn1c(C)cc2cc(C(=O)c3cccc(Cl)c3Cl)sc21` this time
Response given: < 100 nM

Challenge: Same question, `COc1ccc(C(=O)c2cc3cc(C)n(CCCNS(N)(=O)=O)c3s2)cc1` this time
Response given: 100 to 1000 nM

Challenge: Same question, `COc1ccc(C(=O)c2cc3cc(C)n(CCN4CCCCC4)c3s2)c(Cl)c1` this time
Response given: < 100 nM

Challenge: Same question, `COCCn1c(C)cc2cc(C(=O)c3ccc(OC)cc3)sc21` this time
Response given: 100 to 1000 nM

Challenge: Same question, `Cc1cc2cc(C(=O)c3cccc(Cl)c3Cl)sc2n1CCC1CCOCC1` this time
Response given: < 100 nM

Challenge: Same question, `Cc1cc2cc(C(=O)c3cccc(F)c3F)sc2n1CCN1CCOCC1` this time
Response given: 100 to 1000 nM

Challenge: Same question, `Cc1cc2cc(C(=O)c3ccccc3OC(F)(F)F)sc2n1CCN1CCOCC1` this time
Response given: < 100 nM

Challenge: Same question, `Cc1cc2cc(C(=O)c3cccc(Cl)c3Cl)sc2n1CCN1CCOCC1` this time
Response given: < 100 nM

---

For each of the compounds below, state its EC50.
molecular target: human CB2 (hCB2) (Homo sapiens); construct: (cDNA clone) CNR0200000; experiment: 35S GTPγS binding assay, hCB2 agonist; assay type: biochemical; conditions: GTPγS agonist, HEK-293 membranes; read-out: hCB2 EC50 (GTPyS ag)

Challenge: Please report the recorded EC50 for `Cc1cc2cc(C(=O)c3ccccc3)sc2n1CCN1CCOCC1` .
Response given: 100 to 1000 nM

Challenge: Same question, COc1ccc(C(O)(c2cc3cc(C)n(CCN4CCOCC4)c3s2)C(F)(F)F)cc1 (stereo not drawn) this time
Response given: < 100 nM

Challenge: Same question, `COC(=O)Cn1c(C)cc2cc(C(=O)c3ccc(OC)nc3)sc21` this time
Response given: > 10000 nM

Challenge: Same question, `Cc1ccc(C(=N)c2cc3cc(C)n(CCN4CCOCC4)c3s2)cc1` this time
Response given: < 100 nM

Challenge: Same question, `COc1ccc(C(=O)c2cc3cc(C)n(CC4CCN(C(=O)OC(C)(C)C)CC4)c3s2)cn1` this time
Response given: > 10000 nM

Challenge: Same question, `COc1cccc(C(=O)c2cc3cc(C)n(CCN4CCOCC4)c3s2)c1` this time
Response given: < 100 nM

Challenge: Same question, `COc1ccc(C(=O)c2cc3cc(C)n(CCCNS(C)(=O)=O)c3s2)cn1` this time
Response given: < 100 nM

Challenge: Same question, COc1ccc(C(=O)c2cc3cc(C)n(CCN4CC5CC4CO5)c3s2)cn1 (stereo not drawn) this time
Response given: 1000 to 10000 nM

Challenge: Same question, `COc1ccc(C(=O)c2cc3cc(C)n(CCN4CCOCC4)c3s2)c(OC)c1` this time
Response given: < 100 nM

Challenge: Same question, `COc1ncc(C(=O)c2cc3cc(C)n(CCN4CCOCC4)c3s2)cn1` this time
Response given: 100 to 1000 nM

Challenge: Same question, `COc1ccc(C(=O)c2cc3cc(C)n(CCN4CCCC4)c3s2)cn1` this time
Response given: 1000 to 10000 nM

Challenge: Same question, `COc1ccc(C(=O)c2cc3cc(C)n(CCN4CCCOCC4)c3s2)cn1` this time
Response given: 100 to 1000 nM

Challenge: Same question, `Cc1cc2cc(C(=O)c3ccc(F)cc3F)sc2n1CCN1CCOCC1` this time
Response given: 100 to 1000 nM

Challenge: Same question, COc1ccc(C(O)c2cc3cc(C)n(CCN4CCOCC4)c3s2)cc1 (stereo not drawn) this time
Response given: < 100 nM

Challenge: Same question, `COc1ccc(C(=O)c2cc3cc(C)n(CC4CCNCC4)c3s2)cn1` this time
Response given: > 10000 nM

Challenge: Same question, `COc1ccc(C(=O)c2cc3cc(C)n(CCN4CCOCC4)c3s2)cn1` this time
Response given: < 100 nM

Challenge: Same question, `COc1ccc(C(=O)c2cc3cc(C)n(CCN4CCOCC4)c3s2)cc1F` this time
Response given: < 100 nM

Challenge: Same question, `COc1ccc(C(=O)c2cc3cc(C)n(S(=O)(=O)N(C)C)c3s2)cc1` this time
Response given: < 100 nM

Challenge: Same question, COc1ccc(C(c2cc3cc(C)n(CCN4CCOCC4)c3s2)C(F)(F)F)cc1 (stereo not drawn) this time
Response given: 100 to 1000 nM

Challenge: Same question, `Cc1cc2cc(C(=O)c3cccc(Cl)c3)sc2n1CCN1CCOCC1` this time
Response given: < 100 nM

Challenge: Same question, `CCS(=O)(=O)n1c(C)cc2cc(C(=O)c3ccc(OC)cc3)sc21` this time
Response given: < 100 nM

Challenge: Same question, `Cc1cc2cc(C(=O)c3ccc(C#N)cc3)sc2n1CCN1CCOCC1` this time
Response given: < 100 nM

Challenge: Same question, `COc1ccc(C(=O)c2cc3cc(C)n(Cc4ccccc4)c3s2)c(Cl)c1` this time
Response given: < 100 nM

Challenge: Same question, `COc1ccc(C(=O)c2cc3cc(C)n(CCCNS(C)(=O)=O)c3s2)c(Cl)c1` this time
Response given: < 100 nM

Challenge: Same question, `COc1ccc(C(=O)c2cc3cc(C)n(CCC4CCOCC4)c3s2)cc1` this time
Response given: < 100 nM

Challenge: Same question, `COc1ccc(C(=O)c2cc3cc(C)n(CCN4CCC(F)(F)CC4)c3s2)cn1` this time
Response given: < 100 nM

Challenge: Same question, `Cc1cc2cc(C(=O)c3cccc(Cl)c3Cl)sc2n1S(=O)(=O)N1CCOCC1` this time
Response given: < 100 nM

Challenge: Same question, `CCOc1ccc(C(=O)c2cc3cc(C)n(CCN4CCOCC4)c3s2)c(Cl)c1` this time
Response given: < 100 nM

Challenge: Same question, `Cc1cc2cc(C(=O)c3ccc(Cl)cc3Cl)sc2n1CCN1CCOCC1` this time
Response given: < 100 nM

Challenge: Same question, `COc1ccc(C(=O)c2cc3cc(C)n(CC4CCOCC4)c3s2)cc1` this time
Response given: < 100 nM

Challenge: Same question, `Cc1cc2cc(C(=O)c3ccc(F)cc3)sc2n1CCN1CCOCC1` this time
Response given: < 100 nM

Challenge: Same question, `CCOc1ccc(C(=O)c2cc3cc(C)n(CCCNS(C)(=O)=O)c3s2)cc1` this time
Response given: < 100 nM

Challenge: Same question, `COc1cc(F)ccc1C(=O)c1cc2cc(C)n(CCN3CCOCC3)c2s1` this time
Response given: < 100 nM

Challenge: Same question, `COc1ccc(C(=O)c2cc3cc(C)n(S(=O)(=O)N4CCOCC4)c3s2)cc1` this time
Response given: < 100 nM

Challenge: Same question, COc1ccc(C(C)(O)c2cc3cc(C)n(CCN4CCOCC4)c3s2)cc1 (stereo not drawn) this time
Response given: < 100 nM

Challenge: Same question, `COc1ccc(C(=O)c2cc3cc(C)n(CCCNS(C)(=O)=O)c3s2)cc1` this time
Response given: < 100 nM
